Provide the recorded MDCK-MDR1: % Recov A-B for the entries that follow.
System: MDR1-MDCK cell monolayers
experiment summary: MDCK-MDR1 permeability assay (BBB penetration potential)
Format: in vitro ADME
test parameters: dog, MDCK-MDR1, 120 min, 5 μM, pH 7.4
Unit % implied. Number only.

Incoming: # get_value(readout='MDCK-MDR1: % Recov A-B', item= Oc1cc(-c2ccnnc2)ccc1-c1ccc(O[C@@H]2C[C@H]3CCC[C@H](N3)[C@@H]2F)nn1 (single isomer, unassigned) )
Outgoing: 92

Incoming: Try the compound Cn1ccc2cc(O)c(-c3ccc(O[C@H]4C[C@@H]5CC[C@@H](N5)[C@H]4F)nn3)cc2c1=O (single isomer, unassigned)
Outgoing: 89

Incoming: Try the compound Oc1cc(-c2ccc3nncn3c2)ccc1-c1ccc(O[C@@H]2C[C@H]3CCC[C@H](N3)[C@@H]2F)nn1 (single isomer, unassigned)
Outgoing: 94

---

System: MDR1
experiment summary: MDCK-MDR1 permeability assay (BBB penetration potential)
Type: in vitro ADME
test parameters: dog, MDCK-MDR1, pH 7.4, MDCK-MDR1: Efflux
We use 4 as the dividing line for efflux ratio at 120 min, 5 μM: on or above the line is 1 (yes), below is 0 (no).

Incoming: Decide: efflux ratio at 120 min, 5 μM of COc1cc(-c2ccc(-c3ccc(O[C@@H]4C[C@H]5CCC[C@H](N5)[C@@H]4F)nn3)c(O)c2)cnn1 (single isomer, unassigned) >= 4?
Outgoing: 1 (yes)

Incoming: Try the molecule Oc1cc2ncccc2cc1-c1ccc(O[C@H]2C[C@@H]3CCC[C@@H](N3)[C@H]2F)nn1 (single isomer, unassigned)
Outgoing: 1 (yes)

Incoming: Try the molecule Cn1cc(-c2ccc(-c3ccc(O[C@H]4C[C@@H]5COC[C@@H](N5)[C@H]4F)nn3)c(O)c2)cn1 (single isomer, unassigned)
Outgoing: 0 (no)

Incoming: Try the molecule Cn1cc(-c2ccc(-c3ccc(O[C@@H]4C[C@@H]5CCC[C@@H](N5)[C@@H]4F)nn3)c(O)c2)cn1 (single isomer, unassigned)
Outgoing: 1 (yes)

Incoming: Try the molecule Cn1ccc(-c2cc(O)c(-c3ccc(O[C@@H]4C[C@H]5CCC[C@H](N5)[C@@H]4F)nn3)cc2F)cc1=O (single isomer, unassigned)
Outgoing: 1 (yes)

Incoming: Try the molecule Oc1cc(-c2cn[nH]c2)ccc1-c1ccc(O[C@@H]2C[C@H]3CCC[C@H](N3)[C@@H]2F)nn1 (single isomer, unassigned)
Outgoing: 1 (yes)

Incoming: Try the molecule Cc1cc(-c2ccc(-c3ccc(O[C@@H]4C[C@H]5CCC[C@H](N5)[C@@H]4F)nn3)c(O)c2)cs1 (single isomer, unassigned)
Outgoing: 0 (no)

Incoming: Try the molecule Cc1nnc(-c2ccc(-c3ccc(O[C@H]4C[C@@H]5CCC[C@@H](N5)[C@H]4F)nn3)c(O)c2)o1 (single isomer, unassigned)
Outgoing: 1 (yes)

Incoming: Try the molecule Cc1ccc(-c2ccc(-c3ccc(O[C@@H]4C[C@H]5CCC[C@H](N5)[C@@H]4F)nn3)c(O)c2)o1 (single isomer, unassigned)
Outgoing: 0 (no)

Incoming: Try the molecule Oc1cc(-n2ccnc2)ccc1-c1ccc(O[C@@H]2C[C@H]3CC[C@H](N3)[C@@H]2F)nn1 (single isomer, unassigned)
Outgoing: 1 (yes)

---

Test system: mHTT protein
experiment summary: mHTT protein assay (2B7-MW1, Mesoscale Discovery)
Assay type: cell-based, human
test parameters: GM04724 (CAG 70/20) Huntington's disease patient lymphoblast cells, 48 hours, 2B7-MW1 MSD; read-out: HTT Potency - Protein EC50 mHTT (average)
Provide the recorded EC50 for the entries that follow.

Incoming: # get_value(readout='EC50', item= Oc1cc2cnccc2cc1-c1ccc(O[C@H]2C[C@@H]3CCC[C@@H](N3)[C@H]2F)nn1 (single isomer, unassigned) )
Outgoing: 501 to 10000 nM

Incoming: Try the compound Cn1cc(-c2ccc(-c3ccc(O[C@@H]4C[C@@H]5CCC[C@@H](N5)[C@@H]4F)nn3)c(O)c2)cn1 (single isomer, unassigned)
Outgoing: 501 to 10000 nM

Incoming: Try the compound Cc1nocc1-c1ccc(-c2ccc(O[C@H]3C[C@@H]4CCC[C@@H](N4)[C@H]3F)nn2)c(O)c1 (single isomer, unassigned) [72-ENT2]
Outgoing: 101 to 500 nM

Incoming: Try the compound Cc1cncc(-c2ccc(-c3ccc(O[C@H]4C[C@@H]5CCC[C@@H](N5)[C@H]4F)nn3)c(O)c2)n1 (single isomer, unassigned)
Outgoing: 101 to 500 nM

Incoming: Try the compound Cn1cc(-c2ccc(-c3ccc(O[C@H]4C[C@@H]5CCC[C@@H](N5)[C@H]4F)nn3)c(O)c2)cn1 (single isomer, unassigned)
Outgoing: 0.01 to 15 nM

Incoming: Try the compound Oc1cc(-n2ccc(F)n2)ccc1-c1ccc(O[C@H]2C[C@@H]3CCC[C@@H](N3)[C@H]2F)nn1 (single isomer, unassigned)
Outgoing: 0.01 to 15 nM

Incoming: Try the compound Oc1cc(-c2cnn3ccccc23)ccc1-c1ccc(O[C@@H]2C[C@H]3CCC[C@H](N3)[C@@H]2F)nn1 (single isomer, unassigned)
Outgoing: 101 to 500 nM

Incoming: Try the compound Cc1ncn(-c2ccc(-c3ccc(O[C@H]4C[C@@H]5CCC[C@@H](N5)[C@H]4F)nn3)c(O)c2)n1 (single isomer, unassigned)
Outgoing: 101 to 500 nM

Incoming: Try the compound Cn1ccc(=O)c2cc(-c3ccc(O[C@@H]4C[C@@]5(C)CCC[C@](C)(N5)[C@@H]4F)nn3)c(O)cc21 (single isomer, unassigned)
Outgoing: 501 to 10000 nM

Incoming: Try the compound Cn1cc(-c2cc(O)c(-c3ccc(O[C@@H]4C[C@H]5CCC[C@H](N5)[C@@H]4F)nn3)cc2F)cn1 (single isomer, unassigned)
Outgoing: 0.01 to 15 nM

Incoming: Try the compound Cn1ccc(=O)c2cc(O)c(-c3ccc(O[C@H]4C[C@]5(C)CCC[C@@](C)(N5)[C@H]4F)nn3)cc21 (single isomer, unassigned) [132-ENT1]
Outgoing: 101 to 500 nM

Incoming: Try the compound Oc1cc(-c2nncs2)ccc1-c1ccc(O[C@H]2C[C@@H]3CCC[C@@H](N3)[C@H]2F)nn1 (single isomer, unassigned)
Outgoing: 16 to 50 nM

---

Tested on: MDR1-MDCK cell monolayers
experiment summary: MDCK-MDR1 permeability assay (BBB penetration potential)
Assay type: in vitro ADME
test parameters: dog, MDCK-MDR1, 120 min, 5 μM, pH 7.4
Provide the recorded MDCK-MDR1: % Recov B-A for the entries that follow.
Unit % implied. Number only.

Incoming: # get_value(readout='MDCK-MDR1: % Recov B-A', item= Cn1ccc2cc(O)c(-c3ccc(O[C@@H]4C[C@H]5CC[C@H](N5)[C@@H]4F)nn3)cc2c1=O (single isomer, unassigned) )
Outgoing: 79

Incoming: Try the molecule Cc1ccc(-c2ccc(-c3ccc(O[C@H]4C[C@@H]5CCC[C@@H](N5)[C@H]4F)nn3)c(O)c2)s1 (single isomer, unassigned)
Outgoing: 57

Incoming: Try the molecule Oc1cc2ccncc2cc1-c1ccc(O[C@H]2C[C@@H]3CCC[C@@H](N3)[C@H]2F)nn1 (single isomer, unassigned)
Outgoing: 81

---

Tested on: MDR1-MDCK cell monolayers
experiment summary: MDCK-MDR1 permeability assay (BBB penetration potential)
Assay type: in vitro ADME
test parameters: dog, MDCK-MDR1, 120 min, 5 μM, pH 7.4
Experimental: Each determination is performed in duplicate. […] Analytical conditions are outlined below.
readout label: MDCK-MDR1: % Recov A-B (%)
Unit % implied. Number only.

Incoming: # get_value(readout='MDCK-MDR1: % Recov A-B', item= C[C@]12CC[C@](C)(N1)[C@H](F)[C@H](Oc1ccc(-c3ccc(-c4cn[nH]c4)cc3O)nn1)C2 (single isomer, unassigned) [2-ENT1] )
Outgoing: 77

Incoming: Try the compound Oc1cc(-c2ccn3ccnc3c2)ccc1-c1ccc(O[C@H]2C[C@@H]3CCC[C@@H](N3)[C@H]2F)nn1 (single isomer, unassigned) [83-ENT2]
Outgoing: 47

Incoming: Try the compound Oc1cc(-c2nnco2)c(F)cc1-c1ccc(O[C@@H]2C[C@H]3CC[C@H](N3)[C@@H]2F)nn1 (stereo in doubt) [142-ENT1]
Outgoing: 98

Incoming: Try the compound Oc1cc(-n2ccnn2)ccc1-c1ccc(O[C@H]2C[C@@H]3CCC[C@@H](N3)[C@H]2F)nn1 (single isomer, unassigned) [69-ENT2]
Outgoing: 86

Incoming: Try the compound C[C@]12CC[C@](C)(N1)[C@H](F)[C@H](Oc1ccc(-c3ccc(C#N)cc3O)nn1)C2 (single isomer, unassigned) [152-ENT1]
Outgoing: 88

Incoming: Try the compound Oc1cc2ncccc2cc1-c1ccc(O[C@H]2C[C@@H]3CCC[C@@H](N3)[C@H]2F)nn1 (single isomer, unassigned) [103-ENT2]
Outgoing: 98
